Test system: Rhizoctonia solani
Experimental Protocol: Antifungal activity against mepronil-resistant Rhizoctonia solani JSR3 after 2 days
Assay type: functional, organism-based
Condition Summary: JSR3, 48 h
Parameter: EC50 (µg/mL)

[[record]]
test_smiles = "Cc1ccccc1C(=O)Nc1cccc(OC(C)C)c1"
parameter = "EC50"
observed_result = 20.6

[[record]]
test_smiles = "O=C(Nc1ccccc1-c1ccc(Cl)cc1)c1cccnc1Cl"
parameter = "EC50"
observed_result = 2.08

[[record]]
test_smiles = "OCC1=C[C@H](N[C@H]2C[C@H](CO)[C@@H](O[C@@H]3O[C@H](CO)[C@@H](O)[C@H](O)[C@H]3O)[C@H](O)[C@H]2O)[C@H](O)[C@@H](O)[C@@H]1O"
parameter = "EC50"
observed_result = 0.14

[[record]]
test_smiles = "CO/C=C(/C(=O)OC)c1ccccc1Oc1cc(Oc2ccccc2C#N)ncn1"
parameter = "EC50"
observed_result = 0.19

[[record]]
test_smiles = "CO/N=C(/C(=O)OC)c1ccccc1COc1ccccc1C"
parameter = "EC50"
observed_result = 0.16

